Data provenance: patent US20250009745A1

# experimentalTarget: CDK4 (Homo sapiens, UniProt P11802)
# Construct: purchased Carna Company
# Sequence (P11802 whole entry): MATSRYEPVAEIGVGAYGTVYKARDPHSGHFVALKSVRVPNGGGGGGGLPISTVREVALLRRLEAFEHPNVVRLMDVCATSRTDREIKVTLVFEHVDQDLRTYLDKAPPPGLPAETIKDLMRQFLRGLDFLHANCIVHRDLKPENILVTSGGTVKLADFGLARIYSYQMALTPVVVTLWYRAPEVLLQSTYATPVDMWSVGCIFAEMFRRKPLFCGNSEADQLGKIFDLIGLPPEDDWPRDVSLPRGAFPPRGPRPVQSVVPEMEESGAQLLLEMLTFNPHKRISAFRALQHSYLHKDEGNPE
# Sequence (P30281 whole entry partner): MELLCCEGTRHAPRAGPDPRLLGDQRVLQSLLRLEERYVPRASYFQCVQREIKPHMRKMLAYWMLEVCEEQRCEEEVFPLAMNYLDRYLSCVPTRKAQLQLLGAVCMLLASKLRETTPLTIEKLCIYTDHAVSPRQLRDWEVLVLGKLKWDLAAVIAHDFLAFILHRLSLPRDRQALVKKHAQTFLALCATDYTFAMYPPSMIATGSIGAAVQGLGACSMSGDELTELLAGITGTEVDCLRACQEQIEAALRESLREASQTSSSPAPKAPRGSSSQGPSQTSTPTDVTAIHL
# experimentalDetails: CDK enzymology experiment in vitro, capillary mobility shift assay (MSA)
# Type: biochemical
# experimentalParameters: read-out: CDK4 (nM) inhibitory IC50
quantity: IC50

Previously resolved entries follow.
{"columns": ["compound", "IC50"],
 "data": [
  ["N#Cc1cnc(NC2CCN(S(=O)(=O)c3ccc(N4CCNCC4)cc3)CC2)nc1NC1CCCC1 [Compound 90]", "0.5 to 2.5 nM"],
  ["C[C@@H]1CN(c2ccc(S(=O)(=O)N3CCC(Nc4ncc(C(F)(F)F)c(O[C@H]5CCOC5)n4)CC3)cn2)C[C@H](C)N1 [Example 117]", "< 0.5 nM"],
  ["Cn1cc(S(=O)(=O)N2CCC(Nc3ncc(C#N)c(NC4CCCCC4)n3)CC2)cn1 [Compound 79]", "10 to 50 nM"]
]}

Query :: Tell me its IC50 given Cn1cc(S(=O)(=O)N2CCC(Nc3ncc(C#N)c(NC4COC4)n3)CC2)cn1 [Compound 80] as the entry.
Result :: 100 to 1000 nM

###

# experimentalTarget: CDK1 (Homo sapiens)
# Construct: purchased Carna Company
# Sequence (P06493 whole entry): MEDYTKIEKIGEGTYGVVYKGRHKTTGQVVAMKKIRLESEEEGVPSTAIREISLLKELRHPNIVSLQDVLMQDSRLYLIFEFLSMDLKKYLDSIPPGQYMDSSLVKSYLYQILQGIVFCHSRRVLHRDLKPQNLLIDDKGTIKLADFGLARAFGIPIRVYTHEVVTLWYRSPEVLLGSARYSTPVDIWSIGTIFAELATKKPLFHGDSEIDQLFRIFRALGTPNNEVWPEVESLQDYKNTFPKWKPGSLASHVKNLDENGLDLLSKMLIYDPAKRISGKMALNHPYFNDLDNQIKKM
# Sequence (P14635 whole entry partner): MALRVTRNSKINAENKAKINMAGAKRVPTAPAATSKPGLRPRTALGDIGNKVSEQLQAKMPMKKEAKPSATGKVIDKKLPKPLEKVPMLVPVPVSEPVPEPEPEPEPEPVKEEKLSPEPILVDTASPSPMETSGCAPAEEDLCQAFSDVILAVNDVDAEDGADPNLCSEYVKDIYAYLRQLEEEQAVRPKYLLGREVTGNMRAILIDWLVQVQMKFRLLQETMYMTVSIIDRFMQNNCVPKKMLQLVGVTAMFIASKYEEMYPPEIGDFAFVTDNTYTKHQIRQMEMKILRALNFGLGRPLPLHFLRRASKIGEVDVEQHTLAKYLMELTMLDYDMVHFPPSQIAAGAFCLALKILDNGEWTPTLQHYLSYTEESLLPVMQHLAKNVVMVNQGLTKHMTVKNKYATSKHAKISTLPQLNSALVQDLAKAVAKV
# experimentalDetails: CDK enzymology experiment in vitro, capillary mobility shift assay (MSA)
# Assay type: biochemical
# experimentalParameters: read-out: CDK1 (nM) inhibitory IC50
quantity: IC50

Previously resolved entries follow.
{"columns": ["compound", "IC50"],
 "data": [
  ["O=S(=O)(c1ccc(N2CCNCC2)nc1)N1CCC(Nc2ncc(C(F)(F)F)c(O[C@H]3CCOC3)n2)CC1 [Compound 153]", "2.5 to 10 nM"],
  ["Cn1cc(S(=O)(=O)N2CCC(Nc3ncc(C#N)c(N[C@H]4CCOC4)n3)CC2)cn1 [Compound 44]", "100 to 1000 nM"]
]}

# ---- query compound ----
Query :: Tell me its IC50 given CC1(O)CCN(c2ccc(S(=O)(=O)N3CCC(Nc4ncc(C(F)(F)F)c(O[C@H]5CCOC5)n4)CC3)cc2)CC1 [Compound 133] as the entry.
Result :: 2.5 to 10 nM

###

# experimentalTarget: CDK7 (Homo sapiens, UniProt P50613)
# Construct: purchased Carna Company
# Sequence (P50613 whole entry): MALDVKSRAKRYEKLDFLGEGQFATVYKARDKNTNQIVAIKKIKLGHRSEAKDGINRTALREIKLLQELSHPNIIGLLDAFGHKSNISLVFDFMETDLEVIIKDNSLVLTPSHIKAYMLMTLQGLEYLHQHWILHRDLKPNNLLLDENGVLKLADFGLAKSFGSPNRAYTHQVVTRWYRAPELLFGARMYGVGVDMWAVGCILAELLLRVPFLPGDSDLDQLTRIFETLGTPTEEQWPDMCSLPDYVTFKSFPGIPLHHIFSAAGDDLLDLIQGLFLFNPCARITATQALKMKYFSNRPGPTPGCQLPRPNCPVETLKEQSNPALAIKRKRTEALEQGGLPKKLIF
# Sequence (P51946 whole entry partner): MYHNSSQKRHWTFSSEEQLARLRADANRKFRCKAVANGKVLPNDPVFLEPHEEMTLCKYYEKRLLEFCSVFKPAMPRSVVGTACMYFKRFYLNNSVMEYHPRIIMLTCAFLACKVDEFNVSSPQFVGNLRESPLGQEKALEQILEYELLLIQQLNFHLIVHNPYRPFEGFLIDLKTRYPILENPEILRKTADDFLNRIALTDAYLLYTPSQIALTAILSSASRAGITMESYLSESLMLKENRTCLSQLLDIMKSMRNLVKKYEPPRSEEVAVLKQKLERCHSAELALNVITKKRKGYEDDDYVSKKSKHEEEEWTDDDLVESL
# Sequence (P51948 whole entry partner): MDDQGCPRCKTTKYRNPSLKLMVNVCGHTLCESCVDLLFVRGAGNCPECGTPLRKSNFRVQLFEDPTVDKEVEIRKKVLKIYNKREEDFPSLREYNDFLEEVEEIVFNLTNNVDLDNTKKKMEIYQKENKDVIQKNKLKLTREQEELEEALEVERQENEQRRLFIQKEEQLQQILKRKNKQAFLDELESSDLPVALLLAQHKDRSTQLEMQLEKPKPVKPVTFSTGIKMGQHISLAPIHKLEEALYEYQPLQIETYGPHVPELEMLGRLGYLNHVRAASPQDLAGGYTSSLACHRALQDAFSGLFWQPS
# experimentalDetails: CDK enzymology experiment in vitro, capillary mobility shift assay (MSA)
# Type: biochemical
# experimentalParameters: read-out: CDK7 (nM) inhibitory IC50
Below, each entry is listed alongside its reported IC50.

Previously resolved entries follow.
{"columns": ["compound", "IC50"],
 "data": [
  ["O=S(=O)(c1ccc(C2CCNCC2)c(F)c1)N1CCC(Nc2ncc(C(F)(F)F)c(O[C@H]3CCOC3)n2)CC1 [Compound 122]", "10 to 50 nM"],
  ["C[C@@H]1CN(c2ccc(S(=O)(=O)N3CCC(Nc4ncc(C(F)(F)F)c(O[C@H]5CCOC5)n4)CC3)cn2)C[C@H](C)N1 [Example 117]", "2.5 to 10 nM"],
  ["O=S(=O)(c1ccc(C2=CCCNC2)cc1)N1CCC(Nc2ncc(C(F)(F)F)c(O[C@H]3CCOC3)n2)CC1 [Example 112]", "2.5 to 10 nM"],
  ["Cn1cc(-c2ccc(S(=O)(=O)N3CCC(Nc4ncc(C#N)c(N[C@H]5CCOC5)n4)CC3)cc2)cn1 [Example 8]", "50 to 100 nM"],
  ["C[C@H]1CN(c2ccc(S(=O)(=O)N3CCC(Nc4ncc(C(F)(F)F)c(O[C@H]5CCOC5)n4)CC3)cc2)C[C@H](C)N1 [Example 168]", "2.5 to 10 nM"]
]}

Query :: Specify the recorded IC50 for O=S(=O)(c1ccc([C@@H]2CCNC2)cc1)N1CCC(Nc2ncc(C(F)(F)F)c(O[C@H]3CCOC3)n2)CC1 (single isomer, unassigned) [Compound 151] , system: CDK7 (Homo sapiens, UniProt P50613).
Result :: 10 to 50 nM
